Test system: 233499-124-R-J3-PDC complex spheroid growth
assay: Anticancer human tumor 233499-124-R-J3-PDC patient-derived colon adenocarcinoma cell line growth inhibition [AhR]
particulars: second compound 10 µM; first compound 0.1 µM; active compounds read low
measurement-label: viability, T/C (%)

>>> recorded_measurement("Cn1ncnc1C1c2n[nH]c(=O)c3cc(F)cc(c23)NC1c1ccc(F)cc1 (stereo not drawn) + Cc1cncc(-c2nc(NCCc3c[nH]c4ccccc34)c3ncn(C(C)C)c3n2)c1")
18.6
>>> recorded_measurement("COc1cc(Nc2ncc3c(n2)-c2ccc(Cl)cc2C(c2c(F)cccc2OC)=NC3)ccc1C(=O)O + Cc1ccccc1N=Nc1ccc(NC(=O)c2ccnn2C)c(C)c1")
101
>>> recorded_measurement("CC(C)c1c(-c2ccccc2)nc2c(C#N)c[nH]n2c1=O + Cc1ccccc1N=Nc1ccc(NC(=O)c2ccnn2C)c(C)c1")
102

###

Tested on: 233499-124-R-J3-PDC complex spheroid growth
assay: Anticancer human tumor 233499-124-R-J3-PDC cell line growth inhibition [AhR];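 note: spheroids exposed to agents for seven days before reading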
particulars: second compound 0.1 µM; first compound 0.0316 µM; active compounds read low
Listed here: items and their measured viability, T/C.
measurement-label: viability, T/C (%)

>>> recorded_measurement("CC1(C)CCC(CN2CCN(c3ccc(C(=O)NS(=O)(=O)c4ccc(NCC5CCOCC5)c([N+](=O)[O-])c4)c(Oc4cnc5[nH]ccc5c4)c3)CC2)=C(c2ccc(Cl)cc2)C1 + Cc1cncc(-c2nc(NCCc3c[nH]c4ccccc34)c3ncn(C(C)C)c3n2)c1")
103
>>> recorded_measurement("Nc1ccccc1NC(=O)c1ccc(CNC(=O)OCc2cccnc2)cc1 + Cc1cncc(-c2nc(NCCc3c[nH]c4ccccc34)c3ncn(C(C)C)c3n2)c1")
89.4
>>> recorded_measurement("COc1cc(C2c3cc4c(cc3C(OC3OC5COC(C)OC5C(O)C3O)C3COC(=O)C23)OCO4)cc(OC)c1O (configuration not stated) + Cc1ccccc1N=Nc1ccc(NC(=O)c2ccnn2C)c(C)c1")
104
>>> recorded_measurement("Nc1ccccc1NC(=O)c1ccc(CNC(=O)OCc2cccnc2)cc1 + CC(CO)NC(=O)c1cc(-c2ccc(Cl)cc2)nn(-c2cnn(C)c2)c1=O")
97.6
>>> recorded_measurement("COc1cccc2c1C(=O)c1c(O)c3c(c(O)c1C2=O)CC(O)(C(=O)CO)CC3OC1CC(N)C(O)C(C)O1 (configuration not stated) + Cc1ccccc1N=Nc1ccc(NC(=O)c2ccnn2C)c(C)c1")
87
>>> recorded_measurement("CC[C@@]1(O)C(=O)OCc2c1cc1n(c2=O)Cc2cc3c(CN(C)C)c(O)ccc3nc2-1 + Cc1ccccc1N=Nc1ccc(NC(=O)c2ccnn2C)c(C)c1")
79.4
>>> recorded_measurement("O=C(c1cc(Cc2n[nH]c(=O)c3ccccc23)ccc1F)N1CCN(C(=O)C2CC2)CC1 + Cc1cncc(-c2nc(NCCc3c[nH]c4ccccc34)c3ncn(C(C)C)c3n2)c1")
115

###

Test system: 233499-124-R-J3-PDC complex spheroid growth
assay: Anticancer human tumor 233499-124-R-J3-PDC cell line growth inhibition [AhR]; active means viability on the fitted dose curve at most 10% of control; inactive means the rest;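 note: spheroids exposed to agents for seven days before reading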
particulars: second compound 1 µM; first compound 0.0949 µM
Possible outcomes: class 1 = active, class 0 = inactive

>>> class_name("CCN(c1cc(-c2ccc(CN3CCOCC3)cc2)cc(C(=O)NCc2c(C)cc(C)[nH]c2=O)c1C)C1CCOCC1 + Cc1ccccc1N=Nc1ccc(NC(=O)c2ccnn2C)c(C)c1")
"class 0"
>>> class_name("O=C(C=Cn1cnc(-c2cc(C(F)(F)F)cc(C(F)(F)F)c2)n1)NNc1cnccn1 + Cc1cncc(-c2nc(NCCc3c[nH]c4ccccc34)c3ncn(C(C)C)c3n2)c1")
"class 0"
>>> class_name("CC(C)CC(NC(=O)C(Cc1ccccc1)NC(=O)c1cnccn1)B(O)O (stereo unspecified) + CC(CO)NC(=O)c1cc(-c2ccc(Cl)cc2)nn(-c2cnn(C)c2)c1=O")
"class 1"
>>> class_name("CCc1c2c(nc3ccc(O)cc13)-c1cc3c(c(=O)n1C2)COC(=O)[C@]3(O)CC + Cc1ccccc1N=Nc1ccc(NC(=O)c2ccnn2C)c(C)c1")
"class 0"
>>> class_name("CCN(c1cc(-c2ccc(CN3CCOCC3)cc2)cc(C(=O)NCc2c(C)cc(C)[nH]c2=O)c1C)C1CCOCC1 + Cc1cncc(-c2nc(NCCc3c[nH]c4ccccc34)c3ncn(C(C)C)c3n2)c1")
"class 0"
>>> class_name("O=C(C=Cn1cnc(-c2cc(C(F)(F)F)cc(C(F)(F)F)c2)n1)NNc1cnccn1 + CC(CO)NC(=O)c1cc(-c2ccc(Cl)cc2)nn(-c2cnn(C)c2)c1=O")
"class 0"

###

Tested on: 233499-124-R-J3-PDC complex spheroid growth
assay: Anticancer human tumor 233499-124-R-J3-PDC cell line growth inhibition [AhR];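 note: spheroids exposed to agents for seven days before reading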
particulars: second compound 0.1 µM; first compound 0.001 µM; active compounds read low
measurement-label: viability, T/C (%)

>>> recorded_measurement("CC[C@@]1(O)C(=O)OCc2c1cc1n(c2=O)Cc2cc3c(CN(C)C)c(O)ccc3nc2-1 + Cc1ccccc1N=Nc1ccc(NC(=O)c2ccnn2C)c(C)c1")
105
>>> recorded_measurement("Cn1ncnc1C1c2n[nH]c(=O)c3cc(F)cc(c23)NC1c1ccc(F)cc1 (stereo unspecified) + Cc1ccccc1N=Nc1ccc(NC(=O)c2ccnn2C)c(C)c1")
107
>>> recorded_measurement("CC[C@@]1(O)C(=O)OCc2c1cc1n(c2=O)Cc2cc3c(CN(C)C)c(O)ccc3nc2-1 + Cc1cncc(-c2nc(NCCc3c[nH]c4ccccc34)c3ncn(C(C)C)c3n2)c1")
94.2
>>> recorded_measurement("CC[C@@]1(O)C(=O)OCc2c1cc1n(c2=O)Cc2cc3c(CN(C)C)c(O)ccc3nc2-1 + CC(CO)NC(=O)c1cc(-c2ccc(Cl)cc2)nn(-c2cnn(C)c2)c1=O")
92.5
>>> recorded_measurement("Cn1ncnc1C1c2n[nH]c(=O)c3cc(F)cc(c23)NC1c1ccc(F)cc1 (stereo unspecified) + CC(CO)NC(=O)c1cc(-c2ccc(Cl)cc2)nn(-c2cnn(C)c2)c1=O")
102
>>> recorded_measurement("Cn1ncnc1C1c2n[nH]c(=O)c3cc(F)cc(c23)NC1c1ccc(F)cc1 (stereo unspecified) + Cc1cncc(-c2nc(NCCc3c[nH]c4ccccc34)c3ncn(C(C)C)c3n2)c1")
97.3

###

Test system: 233499-124-R-J3-PDC complex spheroid growth
assay: Anticancer human tumor 233499-124-R-J3-PDC cell line growth inhibition [AhR];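 note: spheroids exposed to agents for seven days before reading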
particulars: second compound 0.1 µM; first compound 0.0316 µM; active compounds read low
From the text: Multicellular complex tumor spheroid response to aryl hydrocarbon receptor antagonists in combination with a variety of drugs and investigational agents in selected tumor cell lines […] Compounds. […] If the clinical Cmax for an agent had not been determined, the highest concentration tested was 10 microM (Table 1). […]
Entries and their viability, T/C
measurement-label: viability, T/C (%)

>>> recorded_measurement("CC1COCCN1c1cc(-c2ccnn2C)c2ccnc(-c3ccn[nH]3)c2n1 (stereo unspecified) + Cc1ccccc1N=Nc1ccc(NC(=O)c2ccnn2C)c(C)c1")
105
>>> recorded_measurement("COc1cc(C2c3cc4c(cc3C(OC3OC5COC(C)OC5C(O)C3O)C3COC(=O)C23)OCO4)cc(OC)c1O (stereo unspecified) + CC(CO)NC(=O)c1cc(-c2ccc(Cl)cc2)nn(-c2cnn(C)c2)c1=O")
102
>>> recorded_measurement("O=C(c1cc(Cc2n[nH]c(=O)c3ccccc23)ccc1F)N1CCN(C(=O)C2CC2)CC1 + CC(CO)NC(=O)c1cc(-c2ccc(Cl)cc2)nn(-c2cnn(C)c2)c1=O")
92.2
>>> recorded_measurement("Nc1ccccc1NC(=O)c1ccc(CNC(=O)OCc2cccnc2)cc1 + Cc1ccccc1N=Nc1ccc(NC(=O)c2ccnn2C)c(C)c1")
116
>>> recorded_measurement("NS(=O)(=O)OCC1CC(n2ccc3c(NC4CCc5ccccc54)ncnc32)CC1O (stereo unspecified) + CC(CO)NC(=O)c1cc(-c2ccc(Cl)cc2)nn(-c2cnn(C)c2)c1=O")
100
>>> recorded_measurement("NS(=O)(=O)OCC1CC(n2ccc3c(NC4CCc5ccccc54)ncnc32)CC1O (stereo unspecified) + Cc1cncc(-c2nc(NCCc3c[nH]c4ccccc34)c3ncn(C(C)C)c3n2)c1")
98.7

###

Reported viability, T/C by item:
Tested on: 233499-124-R-J3-PDC complex spheroid growth
assay: Anticancer human tumor 233499-124-R-J3-PDC cell line growth inhibition [AhR];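 note: spheroids exposed to agents for seven days before reading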
particulars: second compound 10 µM; first compound 0.1 µM; active compounds read low
measurement-label: viability, T/C (%)

>>> recorded_measurement("COc1ccc([C@@H](O)c2cc(-c3ncnc4cc(N5CCOCC5)ccc34)c(F)cc2Cl)nn1 + CC(CO)NC(=O)c1cc(-c2ccc(Cl)cc2)nn(-c2cnn(C)c2)c1=O")
83.8
>>> recorded_measurement("Cn1ncnc1C1c2n[nH]c(=O)c3cc(F)cc(c23)NC1c1ccc(F)cc1 (centres undefined) + CC(CO)NC(=O)c1cc(-c2ccc(Cl)cc2)nn(-c2cnn(C)c2)c1=O")
78.7
>>> recorded_measurement("CC(C)c1c(-c2ccccc2)nc2c(C#N)c[nH]n2c1=O + CC(CO)NC(=O)c1cc(-c2ccc(Cl)cc2)nn(-c2cnn(C)c2)c1=O")
82.5
>>> recorded_measurement("COc1ccc([C@@H](O)c2cc(-c3ncnc4cc(N5CCOCC5)ccc34)c(F)cc2Cl)nn1 + Cc1ccccc1N=Nc1ccc(NC(=O)c2ccnn2C)c(C)c1")
90.3
>>> recorded_measurement("Cn1ncnc1C1c2n[nH]c(=O)c3cc(F)cc(c23)NC1c1ccc(F)cc1 (centres undefined) + Cc1ccccc1N=Nc1ccc(NC(=O)c2ccnn2C)c(C)c1")
98.9
>>> recorded_measurement("O=C(c1cc(Cc2n[nH]c(=O)c3ccccc23)ccc1F)N1CCN(C(=O)C2CC2)CC1 + Cc1cncc(-c2nc(NCCc3c[nH]c4ccccc34)c3ncn(C(C)C)c3n2)c1")
6.91
>>> recorded_measurement("CC1COCCN1c1cc(-c2ccnn2C)c2ccnc(-c3ccn[nH]3)c2n1 (centres undefined) + CC(CO)NC(=O)c1cc(-c2ccc(Cl)cc2)nn(-c2cnn(C)c2)c1=O")
59
>>> recorded_measurement("CC[C@@]1(O)C(=O)OCc2c1cc1n(c2=O)Cc2cc3c(CN(C)C)c(O)ccc3nc2-1 + Cc1cncc(-c2nc(NCCc3c[nH]c4ccccc34)c3ncn(C(C)C)c3n2)c1")
16.9
>>> recorded_measurement("Nc1ncn(C2CC(O)C(CO)O2)c(=O)n1 (centres undefined) + Cc1cncc(-c2nc(NCCc3c[nH]c4ccccc34)c3ncn(C(C)C)c3n2)c1")
44.8
>>> recorded_measurement("Nc1ccccc1NC(=O)c1ccc(CNC(=O)OCc2cccnc2)cc1 + Cc1ccccc1N=Nc1ccc(NC(=O)c2ccnn2C)c(C)c1")
108
>>> recorded_measurement("CC[C@@]1(O)C(=O)OCc2c1cc1n(c2=O)Cc2cc3c(CN(C)C)c(O)ccc3nc2-1 + CC(CO)NC(=O)c1cc(-c2ccc(Cl)cc2)nn(-c2cnn(C)c2)c1=O")
56.1
>>> recorded_measurement("COc1cccc2c1C(=O)c1c(O)c3c(c(O)c1C2=O)CC(O)(C(=O)CO)CC3OC1CC(N)C(O)C(C)O1 (centres undefined) + CC(CO)NC(=O)c1cc(-c2ccc(Cl)cc2)nn(-c2cnn(C)c2)c1=O")
76.1
>>> recorded_measurement("CC1COCCN1c1cc(C2(S(C)(=N)=O)CC2)nc(-c2ccnc3[nH]ccc23)n1 (centres undefined) + Cc1ccccc1N=Nc1ccc(NC(=O)c2ccnn2C)c(C)c1")
107
>>> recorded_measurement("O=C(C=Cc1cccc(S(=O)(=O)Nc2ccccc2)c1)NO + Cc1cncc(-c2nc(NCCc3c[nH]c4ccccc34)c3ncn(C(C)C)c3n2)c1")
6.48
